# credit: patent US11986471B2

target: PRMT5 (Homo sapiens); construct: purchased Viva (custom protein); experiment: PRMT5 IC50 assay in the presence of SAM as cofactor; assay type: biochemical
Sequence (O14744 whole entry): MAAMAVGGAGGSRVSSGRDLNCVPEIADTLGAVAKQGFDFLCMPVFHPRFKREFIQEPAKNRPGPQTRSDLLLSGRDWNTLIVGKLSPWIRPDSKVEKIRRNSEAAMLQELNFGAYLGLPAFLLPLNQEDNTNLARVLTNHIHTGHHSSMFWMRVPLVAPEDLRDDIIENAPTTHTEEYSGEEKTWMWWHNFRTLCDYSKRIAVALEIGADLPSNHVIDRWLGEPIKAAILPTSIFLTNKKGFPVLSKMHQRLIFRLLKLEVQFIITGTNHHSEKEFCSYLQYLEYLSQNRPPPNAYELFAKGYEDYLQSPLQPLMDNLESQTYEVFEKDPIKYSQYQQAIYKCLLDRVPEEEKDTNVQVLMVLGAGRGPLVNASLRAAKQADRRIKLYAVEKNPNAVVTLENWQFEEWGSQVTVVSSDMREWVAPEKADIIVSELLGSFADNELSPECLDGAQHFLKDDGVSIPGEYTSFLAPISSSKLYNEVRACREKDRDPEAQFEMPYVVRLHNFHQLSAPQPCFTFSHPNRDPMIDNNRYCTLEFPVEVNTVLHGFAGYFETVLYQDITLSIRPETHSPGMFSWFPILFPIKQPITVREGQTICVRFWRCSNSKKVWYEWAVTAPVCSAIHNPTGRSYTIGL
Sequence (Q9BQA1 whole entry partner): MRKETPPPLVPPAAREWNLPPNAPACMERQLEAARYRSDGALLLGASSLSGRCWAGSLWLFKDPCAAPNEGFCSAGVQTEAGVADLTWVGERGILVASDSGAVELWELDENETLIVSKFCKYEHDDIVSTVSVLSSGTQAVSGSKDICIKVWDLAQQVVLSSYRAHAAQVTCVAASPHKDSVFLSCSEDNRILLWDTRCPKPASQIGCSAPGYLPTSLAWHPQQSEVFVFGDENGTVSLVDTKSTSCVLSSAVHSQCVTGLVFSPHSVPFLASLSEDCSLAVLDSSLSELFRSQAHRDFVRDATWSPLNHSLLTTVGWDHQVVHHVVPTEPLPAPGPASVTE
pIC50: −log10 of the molar value.
pIC50 reference

Solved cases below.
molecule	result
CC(=O)N1CCN(c2cc(C(=O)NC[C@H](O)CN3CCc4cc(OCc5cnco5)ccc4C3)cc(NC3CCC3)n2)CC1	6.30 to 7.30
O=C(NC[C@H](O)CN1CCc2c(ccc(OCc3cnco3)c2Cl)C1)c1cc(NC2CCC2)nc(N2CCOCC2)c1	5.30 to 6.30
Cc1ncoc1COc1ccc2c(c1C)CCN(C[C@@H](O)CNC(=O)c1cc(NC3COC3)nc(N3CCOCC3)n1)C2	5.30 to 6.30
CC(C)(C)C(=O)N1CCC(Nc2cc(C(=O)NC[C@H](O)CN3CCc4c(ccc(OCc5cnco5)c4Cl)C3)ccn2)CC1	6.30 to 7.30

For the molecule `CC(=O)N1CCC(Nc2cc(C(=O)NC[C@H](O)CN3CCc4cc(OCc5conc5C)ccc4C3)ncn2)CC1` , give its reported pIC50. 6.30 to 7.30

Note pIC50 for the molecule shown: CC(=O)N1CC[C@H](Nc2cc(C(=O)NC[C@H](O)CN3CCc4cc(OCc5ocnc5C)ccc4C3)ncn2)C[C@H]1C (mixture of isomers) 6.30 to 7.30

Could you please provide reported pIC50 for O=C(NC[C@H](O)CN1CCc2c(ccc(OCc3cnco3)c2Cl)C1)c1cncc(NC2CCOC2)c1 (stereo partly shown) ? Thanks! 5.30 to 6.30
